Assay: Stability in mouse plasma assessed as half life at 1 uM measured up to 120 mins by LC-MS/MS analysis
Type: ADME, cell-free
READOUT_LABEL: half-life at 1 µM (h)

INPUT_SMILES | READOUT_LABEL | UNIT_LABEL | RECORDED_VALUE
C#Cc1c(F)ccc2cc(O)cc(-c3ncc4c(N5CC6CCC(C5)N6)nc(OCC5(CN6CCC7(CC6)CC(N6CCC(c8cc9c(cc8F)c(N8CCC(=O)NC8=O)nn9C)CC6)C7)CC5)nc4c3F)c12 | half-life at 1 µM | h | 8.88

====

Test: Metabolic stability in monkey liver microsomes assessed as half life at 1 uM preincubated for 3 mins with NADPH and measured up to 60 mins by LC-MS/MS analysis
Assay type: ADME, Macaca mulatta, Microsome
Details: rhesus monkey, time < 63 min

INPUT_SMILES | half-life at 1 µM [h]
C#Cc1c(F)ccc2cc(O)cc(-c3ncc4c(N5CC6CCC(C5)N6)nc(OCC5(CN6CCC7(CC6)CC(N6CCC(c8cc9c(cc8F)c(N8CCC(=O)NC8=O)nn9C)CC6)C7)CC5)nc4c3F)c12 | 7.22

====

System: Protein cereblon/GTPase KRas (Homo sapiens), P01116+Q96SW2 [G12D]
Sequence (P01116 whole entry G12D): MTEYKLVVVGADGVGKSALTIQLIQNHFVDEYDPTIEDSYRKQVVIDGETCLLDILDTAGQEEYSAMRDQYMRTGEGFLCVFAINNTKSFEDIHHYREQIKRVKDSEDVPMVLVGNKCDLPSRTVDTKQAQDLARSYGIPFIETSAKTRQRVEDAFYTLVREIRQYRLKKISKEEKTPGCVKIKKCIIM
Sequence (Q96SW2 whole entry partner): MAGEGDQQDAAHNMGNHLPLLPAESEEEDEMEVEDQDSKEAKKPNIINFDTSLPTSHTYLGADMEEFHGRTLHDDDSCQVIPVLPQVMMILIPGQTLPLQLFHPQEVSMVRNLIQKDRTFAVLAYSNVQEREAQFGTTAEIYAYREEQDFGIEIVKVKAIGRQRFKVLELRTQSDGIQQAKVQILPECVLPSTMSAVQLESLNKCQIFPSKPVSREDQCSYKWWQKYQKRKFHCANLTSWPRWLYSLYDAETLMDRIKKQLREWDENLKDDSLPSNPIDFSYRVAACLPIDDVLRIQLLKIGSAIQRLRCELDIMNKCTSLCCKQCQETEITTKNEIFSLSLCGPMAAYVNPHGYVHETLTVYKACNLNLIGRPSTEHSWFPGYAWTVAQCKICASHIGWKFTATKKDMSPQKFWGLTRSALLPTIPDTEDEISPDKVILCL
Experiment: PROTAC activity at CRBN/KRAS G12D mutant in human ASPC1 cells assessed as induction of KRAS G12D mutant degradation at 50 nM measured after 24 hrs by immunoblot analysis relative to control
Assay type: cell-based
READOUT_LABEL: Activity (%)

COMPOUND | READOUT_LABEL | RECORDED_VALUE
C#Cc1c(F)ccc2cc(O)cc(-c3ncc4c(N5CC6CCC(C5)N6)nc(OCC5(CN6CCC7(CC6)CC(N6CCC(c8cc9c(cc8F)c(N8CCC(=O)NC8=O)nn9C)CC6)C7)CC5)nc4c3F)c12 | Activity | 74
C#Cc1c(F)ccc2cc(O)cc(-c3ncc4c(N5CC6CCC(C5)N6)nc(OCC5(CN6CCC7(CC6)CC(N6CCC(c8ccc(C9CCC(=O)NC9=O)cc8)CC6)C7)CC5)nc4c3F)c12 (configuration not stated) | Activity | 81
C#Cc1c(F)ccc2cc(O)cc(-c3ncc4c(N5CC6CCC(C5)N6)nc(OCC5(CN6CCC7(CC6)CC(N6CCN(c8ccc(N9CCC(=O)NC9=O)cc8)CC6)C7)CC5)nc4c3F)c12 | Activity | 2
C#Cc1c(F)ccc2cc(O)cc(-c3ncc4c(N5CC6CCC(C5)N6)nc(OCC5(CN6CCC7(CC6)CC(N6CCC(c8cccc(C9CCC(=O)NC9=O)c8)CC6)C7)CC5)nc4c3F)c12 (configuration not stated) | Activity | -20
C#Cc1c(F)ccc2cc(O)cc(-c3ncc4c(N5CC6CCC(C5)N6)nc(OCC5(CN6CCC7(CC6)CC(N6CCN(c8cccc9c8C(=O)N(C8CCC(=O)NC8=O)C9=O)CC6)C7)CC5)nc4c3F)c12 (configuration not stated) | Activity | 34
C#Cc1c(F)ccc2cc(O)cc(-c3ncc4c(N5CC6CCC(C5)N6)nc(OCCCN5CCN(C(=O)CN6CCN(c7ccc8c(c7)C(=O)N(C7CCC(=O)NC7=O)C8=O)CC6)CC5)nc4c3F)c12 (configuration not stated) | Activity | 9
C#Cc1c(F)ccc2cc(O)cc(-c3ncc4c(N5CC6CCC(C5)N6)nc(OCC5(CN6CCC7(CC6)CC(N6CCN(c8ccc(NC9CCC(=O)NC9=O)cc8F)CC6)C7)CC5)nc4c3F)c12 (configuration not stated) | Activity | 64
C#Cc1c(F)ccc2cc(O)cc(-c3ncc4c(N5CC6CCC(C5)N6)nc(OCC5(CN6CCC7(CC6)CC(N6CCC(c8ccc(NC9CCC(=O)NC9=O)cc8F)CC6)C7)CC5)nc4c3F)c12 (configuration not stated) | Activity | 79
C#Cc1c(F)ccc2cc(O)cc(-c3ncc4c(N5CC6CCC(C5)N6)nc(OCCCN5CCN(CC(=O)N6CCN(c7ccc8c(c7)C(=O)N(C7CCC(=O)NC7=O)C8=O)CC6)CC5)nc4c3F)c12 (configuration not stated) | Activity | 1
C#Cc1c(F)ccc2cc(O)cc(-c3ncc4c(N5CC6CCC(C5)N6)nc(OCCCN5CCN(CC(=O)N6CCN(c7cccc8c7C(=O)N(C7CCC(=O)NC7=O)C8=O)CC6)CC5)nc4c3F)c12 (configuration not stated) | Activity | 2
C#Cc1c(F)ccc2cc(O)cc(-c3ncc4c(N5CC6CCC(C5)N6)nc(OCCCN5CCN(C(=O)CN6CCN(c7cccc8c7C(=O)N(C7CCC(=O)NC7=O)C8=O)CC6)CC5)nc4c3F)c12 (configuration not stated) | Activity | 12
C#Cc1c(F)ccc2cc(O)cc(-c3ncc4c(N5CC6CCC(C5)N6)nc(OCC5(CN6CCC7(CC6)CC(N6CCC(c8ccc9c(c8)C(=O)N(C8CCC(=O)NC8=O)C9=O)CC6)C7)CC5)nc4c3F)c12 (configuration not stated) | Activity | 59
